# experiment.notes: NCI Yeast Anticancer Drug Screen. Data for the mec2-1 strain (AID 157)
# stated.conditions: S. cerevisiae mec2-1 strain, at 50.0 µM
The panel holds about 79,000 compounds, 15% with a hit somewhere; the sample as a whole holds those more often. Calls of active or inactive are those of the source. Rule as the data show it: active = growth inhibition above about 70%; inactive = the rest.
Write down one outcome, taken from active, inactive

Answered examples (3):
{"columns": ["molecule", "group"],
 "data": [
  ["COC(=O)CC1C=CC(OC)[C@@]2(C)C(=O)C=C(C)C(=O)[C@@H]12 (stereo partly specified)", "inactive"],
  ["O=C(Cc1nc2ccc(C(=O)c3ccccc3)cc2[nH]c1=O)C(=O)Nc1nc2ccccc2[nH]1", "inactive"],
  ["Nc1nc(N)nc(Cc2ccccc2)n1", "inactive"]
]}

We next turn to a different molecule, shown below.
For C/C(CC(=O)Nc1ccc(Cl)c(Cl)c1)=N/NC(=O)C[N+](C)(C)C , which call appears in the assay record?
inactive
